Measured solubility kinetic at 1 h values are reported for all entries that follow.
- test.description: Kinetic solubility assay
- Format: physicochemical
- measurement.conditions: phosphate-buffered saline, pH 7.4, aqueous buffer, kinetic from dmso stock
# value in µM; strip the unit string

Some solved cases for reference:
compound: CCc1cc(C(=O)NC)c2nccc(N3CCc4c(cc(Cn5ccnc5)cc4-c4cn(C)nc4C(F)(F)F)C3=O)c2c1 [Compound 10]
measurement.label: solubility kinetic at 1 h
result.value: 31
//
compound: COc1cc(C(=O)N(C)C)c2nccc(N3CCc4c(cc(Cn5ccnc5)cc4-c4cn(C)nc4C(F)(F)F)C3=O)c2c1 [Compound 8]
measurement.label: solubility kinetic at 1 h
result.value: 95
//
compound: CCc1cc(OC)c2nccc(N3CCc4c(cc(Cn5ccnc5)cc4-c4cn(C)nc4C(F)(F)F)C3=O)c2c1 [Compound 9]
measurement.label: solubility kinetic at 1 h
result.value: 62

input: Can you look up the measured solubility kinetic at 1 h of CNC(=O)c1cc(OC)cc2c(N3CCc4c(cc(Cn5ccnc5)cc4-c4cn(C)nc4C(F)(F)F)C3=O)ccnc12 [Compound 7] for me?
output: 73
